System: transfected CHO cells expressing recombinant human monoclonal antibody (cell line 1)
Experiment: 24-deep well culture, cell line 1: VCD, viability, titer, qP
Format: cell-based, Chinese hamster
Conditions: Cell Line 1; 10 microM; D 4
MEASURED_QUANTITY: qP (pg/c/d)
Could you give me the number in pg/c/d? Just the number is fine.

// query Consider the compound shown here: CC1CCC(n2c3cnccc3c3cnc(Nc4ccc(N5CCC6(CC5)CCS(=O)(=O)C6)nn4)nc32)CC1 (centres unmarked) What is its recorded qP?
// result 92.97

// query Look up qP: CN(C)C1CCN(c2ccc(Nc3ncc4c5ccncc5n(C5CCCC5)c4n3)nn2)CC1
// result 99.64

// query For CC1CCC(n2c3cnccc3c3cnc(Nc4ccc(N5CCNC(C)C5)nn4)nc32)CC1 (centres unmarked) , what is its reported qP?
// result 98.63

// query Consider the compound OC1CCN(c2ccc(Nc3ncc4c5ccncc5n(C5CCCC5)c4n3)nn2)C1 (centres unmarked) and give its measured qP.
// result 79.79

// query Endpoint output: qP of CN(C)C1CCN(c2ccc(Nc3ncc4c(n3)C3(C=CC(C)(C)CC3)c3cnccc3-4)nn2)CC1 (centres unmarked) . Value?
// result 56.01

----------
Test system: transfected CHO cells expressing recombinant human monoclonal antibody (cell line 1)
Assay: 24-deep well culture, cell line 1: VCD, viability, titer, qP
Type: cell-based, Chinese hamster
Settings: Cell Line 1; 5 microM; D 3
Procedure: Transfected CHO cells expressing a recombinant human monoclonal antibody (mAb) are cultured in 24-deep well plates with seeding density at 1×10^7/mL for five days. […] Compounds are further evaluated essentially as described in Example 2 herein. […] Additional parameters measure include the presence or absence of high molecular weight substances (usually an indicator of protein aggregation; expressed as % of the total protein); and the relative percentage of Mannose 5. […]
MEASURED_QUANTITY: Viability (%)
Numbers only here, please. The scale is %.

// query Viability lookup needed for CC1CCC(n2c3cnccc3c3cnc(Nc4ccc(N5CCC6(CC5)CCS(=O)(=O)C6)nn4)nc32)CC1 (stereo not shown) [Compound E] , thanks.
// result 79.09

// query Suppose we examine the compound OC1CCN(c2ccc(Nc3ncc4c5ccncc5n(C5CCCC5)c4n3)nn2)C1 (stereo not shown) [Compound G] ; what Viability value has been reported?
// result 83.82

// query Quick check: Viability of CC1CCC(n2c3cnccc3c3cnc(Nc4ccc(N5CCNC(C)C5)nn4)nc32)CC1 (stereo not shown) [Compound D] ?
// result 79.43

// query What does the data say about its Viability? Entry: CN(C)C1CCN(c2ccc(Nc3ncc4c5ccncc5n([C@H]5CC[C@H](C)CC5)c4n3)nn2)CC1 [Compound B]
// result 82.33

----------
For each entry below, report its VCD value.
Test system: transfected CHO cells expressing recombinant human monoclonal antibody (cell line 1)
Test: 24-deep well culture, cell line 1: VCD, viability, titer, qP
Format: cell-based, Chinese hamster
Conditions: Cell Line 1; 5 microM; D 4

// query GET /values?readout=VCD&item= CN(C)C1CCN(c2ccc(Nc3ncc4c5ccncc5n([C@H]5CC[C@H](C)CC5)c4n3)nn2)CC1
// result 12.66 e6/mL

// query So what's the measured VCD for this one? OC1CCN(c2ccc(Nc3ncc4c5ccncc5n(C5CCCC5)c4n3)nn2)C1 (stereo not shown)
// result 13.45 e6/mL

// query Fill in the blank: the reported VCD of CC1CCC(n2c3cnccc3c3cnc(Nc4ccc(N5CCC6(CC5)CCS(=O)(=O)C6)nn4)nc32)CC1 (stereo not shown) is ____.
// result 10.39 e6/mL

// query Please give the measured VCD for this compound: CC1CCC(n2c3cnccc3c3cnc(Nc4ccc(N5CCNC(C)C5)nn4)nc32)CC1 (stereo not shown)
// result 11.94 e6/mL

The origin of these recorded values is patent US20180087079A1.
